- Tested on: Cabbage Looper (Trichoplusia ni, TRIPNI)
- measurement.description: Bioassay on Cabbage Looper (CL), 128-well diet tray assay
- Format: in vivo
- test.conditions: Trichoplusia ni; Cabbage Looper, 128-well diet tray assay; read-out: CL rating
- Description: Certain molecules disclosed in this document were tested against BAW and CL using procedures described in the following examples. In the reporting of the results, the “BAW & CL Rating Table” was used (See Table Section). […]
Kindly supply the reported pest or weed control at 50 µg/cm2 values for the records listed here.

IN: Fill in the recorded pest or weed control at 50 µg/cm2 for this molecule, with Cabbage Looper (Trichoplusia ni, TRIPNI) as test system: COc1cc(NC(=O)c2cc(NC(=O)C3C(c4cc(Cl)cc(Cl)c4)C3(Cl)Cl)ccc2Cl)ccc1Cl (stereo not drawn)
OUT: 50 to 100%

IN: Also O=C(Nc1ccc2nc(Cl)[nH]c2c1)c1cc(NC(=O)C2C(c3cc(Cl)cc(Cl)c3)C2(Cl)Cl)ccc1Cl (stereo not drawn) ?
OUT: 50 to 100%

IN: Quick one: O=C(Nc1nc2ccccc2o1)c1cc(NC(=O)C2C(c3cc(Cl)cc(Cl)c3)C2(Cl)Cl)ccc1Cl (stereo not drawn)
OUT: 50 to 100%

IN: Same thing, different molecule: C#Cc1cccc(NC(=O)c2cc(NC(=O)C3C(c4cc(Cl)cc(Cl)c4)C3(Cl)Cl)ccc2Cl)c1 (stereo not drawn)
OUT: 50 to 100%

IN: Next up: O=C(Nc1ncc(F)cc1F)c1cc(NC(=O)[C@H]2[C@H](c3ccc(Cl)c(C(F)F)c3)C2(Cl)Cl)ccc1Cl (relative stereo)
OUT: 50 to 100%

IN: Please answer likewise for Cn1nc(NC(=O)c2cc(NC(=O)C3C(c4cc(Cl)cc(Cl)c4)C3(Cl)Cl)ccc2Cl)c2c(F)cccc21 (stereo not drawn)
OUT: 50 to 100%

IN: Same question, C#CCN(C(=O)c1cc(NC(=O)[C@H]2[C@H](c3cc(Cl)cc(Cl)c3)C2(Cl)Cl)ccc1Cl)c1ccc(F)cc1 (relative stereo) this time
OUT: 50 to 100%

IN: Can you handle O=C(Nc1ccc(F)cc1)c1cc(NC(=O)[C@H]2[C@H](c3cc(F)c(Br)c(F)c3)C2(Cl)Cl)ccc1Cl (relative stereo) next?
OUT: 50 to 100%

IN: Try Cn1ncc2cc(NC(=O)c3cc(NC(=O)[C@H]4[C@H](c5cc(Cl)cc(Cl)c5)C4(Cl)Cl)ccc3Cl)cnc21 (relative stereo) next.
OUT: 50 to 100%

IN: Further, for Nc1c(F)ccc(NC(=O)c2cc(NC(=O)C3C(c4cc(Cl)c(Cl)c(Br)c4)C3(Cl)Cl)ccc2Cl)c1F (stereo not drawn) ?
OUT: 50 to 100%

IN: Now the molecule O=C(Nc1cc(C(F)(F)F)[nH]n1)c1cc(NC(=O)[C@H]2[C@H](c3cc(Cl)cc(Cl)c3)C2(Cl)Cl)ccc1Cl (relative stereo)
OUT: 50 to 100%

IN: And the next one, O=C(Nc1ccc(F)cc1)c1cc(NC(=O)C2C(c3cc(Cl)cc(Cl)c3)C2(Cl)Cl)ccc1Cl (stereo not drawn) ?
OUT: 50 to 100%

IN: // query: O=C(Nc1cnc2cc[nH]c2c1)c1cc(NC(=O)C2C(c3cc(Cl)cc(Cl)c3)C2(Cl)Cl)ccc1Cl (stereo not drawn)
OUT: 50 to 100%

IN: Try O=C(Nc1cc(F)cc([N+](=O)[O-])c1)c1cc(NC(=O)[C@H]2[C@H](c3ccc(Cl)c(Cl)c3)C2(Cl)Cl)ccc1Cl next.
OUT: 50 to 100%

IN: Another molecule: O=C(NC1CCc2ncccc2C1)c1cc(NC(=O)C2C(c3cc(Cl)cc(Cl)c3)C2(Cl)Cl)ccc1Cl (stereo not drawn)
OUT: 50 to 100%

IN: Please give the result for O=C(Nc1ccc(F)cc1)c1cc(NC(=O)[C@H]2[C@H](c3ccc(F)c(Cl)c3)C2(Cl)Cl)ccc1Cl (relative stereo) too.
OUT: 50 to 100%

IN: Can you handle O=C(Nc1ccc(F)cc1C(F)(F)F)c1cc(NC(=O)[C@H]2[C@H](c3cc(Cl)cc(Cl)c3)C2(Cl)Cl)ccc1Cl (relative stereo) next?
OUT: 50 to 100%

IN: Also Nc1cc(F)c(NC(=O)c2cc(NC(=O)[C@H]3[C@H](c4ccc(Cl)c(Cl)c4)C3(Cl)Cl)ccc2Cl)cc1F , if possible.
OUT: 50 to 100%

IN: What about this molecule? COc1cc(NC(=O)c2cc(NC(=O)[C@H]3[C@H](c4cc(Cl)cc(Cl)c4)C3(Cl)Cl)ccc2Cl)ccn1 (relative stereo)
OUT: 50 to 100%

IN: Also, CC(C)(C)c1cc2cc(NC(=O)c3cc(NC(=O)[C@H]4[C@H](c5cc(Cl)cc(Cl)c5)C4(Cl)Cl)ccc3Cl)ccc2[nH]1 (relative stereo) please.
OUT: 50 to 100%

IN: Again, but for O=C(Nc1ccc2[nH]ccc2c1)c1cc(NC(=O)C2C(c3cc(Cl)cc(Cl)c3)C2(Cl)Cl)ccc1Cl (stereo not drawn)
OUT: 50 to 100%

IN: What about this molecule? O=C(Nc1cccc2cc[nH]c12)c1cc(NC(=O)[C@H]2[C@H](c3cc(Cl)cc(Cl)c3)C2(Cl)Cl)ccc1Cl (relative stereo)
OUT: 50 to 100%

IN: // query: O=C(Nc1ccc2ncsc2c1)c1cc(NC(=O)C2C(c3cc(Cl)cc(Cl)c3)C2(Cl)Cl)ccc1Cl (stereo not drawn)
OUT: 50 to 100%

IN: What about Nc1cc(F)c(NC(=O)c2cc(NC(=O)[C@H]3[C@H](c4ccc(F)c(Cl)c4)C3(Cl)Cl)ccc2Cl)cc1F ?
OUT: 50 to 100%

IN: // same read-out, input: O=C(Nc1ccc(Cl)cn1)c1cc(NC(=O)[C@H]2[C@H](c3cc(Cl)cc(Cl)c3)C2(Cl)Cl)ccc1Cl (relative stereo)
OUT: 50 to 100%

IN: And what about the molecule CC(C)(C)OC(=O)N(C(=O)OC(C)(C)C)c1c(F)cc(F)cc1NC(=O)c1cc(NC(=O)[C@H]2[C@H](c3cc(Cl)cc(Cl)c3)C2(Cl)Cl)ccc1Cl ?
OUT: 0 to 50%

IN: // repeat for CC(=O)Nc1cccc(NC(=O)c2cc(NC(=O)[C@H]3[C@H](c4cc(Cl)cc(Cl)c4)C3(Cl)Cl)ccc2Cl)n1 (relative stereo) and report
OUT: 50 to 100%
